Source of measurements: the supplement of paper PMC4466140

- TARGET SYSTEM: SpSla1-D1-D2
- TEST: SPOT peptide array binding signal intensity (averaged, normalized) (arbitrary units (background-subtracted, floor 0; scale differs between SH3 domains)); higher = stronger binding of the SH3 domain to the peptide
ASSAY METRIC: SPOT peptide array binding signal intensity

>  <BINDER>
ALFRLSFFFPLDPAY

>  <CMP>
=

>  <MEASURED NUMBER>
8

$$$$
>  <BINDER>
NRPAIRIPSLKKPAL

>  <CMP>
≤

>  <MEASURED NUMBER>
0

$$$$
>  <BINDER>
QGYPRQPQRPQRYHP

>  <CMP>
≤

>  <MEASURED NUMBER>
0

$$$$
>  <BINDER>
LLIRWLILMPLVGSR

>  <CMP>
≤

>  <MEASURED NUMBER>
0

$$$$
>  <BINDER>
SSTPTTPERPKRKSG

>  <CMP>
=

>  <MEASURED NUMBER>
8

$$$$
>  <BINDER>
RVTRKRPREPKSTND

>  <CMP>
=

>  <MEASURED NUMBER>
1

$$$$
>  <BINDER>
RRRIAYPFYPFKKLG

>  <CMP>
≤

>  <MEASURED NUMBER>
0

$$$$
